- Run description: qHTS of pediatric cancer cell lines to identify multiple opportunities for drug repurposing: Primary screen for U-2 OS cells (AID 1347096);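 note: plate controls were DMSO wells for no effect and bortezomib positive control wells for full effect; nearly all actives have a fitted effect of over 50% in size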
- Conditions: U-2 OS viability, CellTiter-Glo luminescence, 48 h; series mostly up to 46 µM
Records with an inconclusive call do not appear. Active and inactive are the calls of the source. Calls come from the whole dose curve; as a rule, active = well fitted cell-killing curve with a large enough effect; inconclusive = small, poorly fitted or top-dose-only effect; inactive = flat fitted curve, though single readings scatter.
// one of active, inactive, no free text

Solved cases (3 shown):
In [3]: df
Out[3]:
                                   molecule  label_value
0  C[C@]12CCC(=O)C(O)=C1CC[C@@H]1[C@@H]2CC[C@]2(C)C(=O)CC[C@@H]12     inactive
1  O=C(O)C(=O)c1cn(Cc2ccccc2)c2ccc(-c3ccc(OC(F)(F)F)cc3)cc12     inactive
2     N[C@@H](Cc1ccc(N(CCCl)CCCl)cc1)C(=O)O     inactive

Q: Returns: the outcome recorded for CC[N+]1(C)CCCC(OC(=O)C(O)(c2ccccc2)c2ccccc2)C1 (centres undefined) in this assay.
Result: inactive

Q: Lab log entry: CCN(C(C)=O)c1cccc(-c2ccnc3c(C#N)cnn23)c1 — outcome as called in the assay?
Result: inactive

====

- Run description: qHTS assay for environmental chemicals that activate the Aryl hydrocarbon Receptor (AhR) signaling pathway (AID 651777); note: % of control where 0% means no effect; nearly all actives have a fitted effect of over 15% in size
- Conditions: 1A2-DRE human hepatoma cells, luciferase, 24 h; active compounds read high
Results filed as inconclusive are left out.
Kindly state activation for each of the entries shown.
Numbers only, in %.

Molecule	Measured attribute	Assay value
CNCC(O)c1ccc(O)cc1 (stereo unspecified)	activation	-0.394

// each listed molecule needs a value for activation
1. C[C@@H]1O[C@@H](O[C@H]2C[C@@H](O)[C@]3(CO)[C@H]4[C@H](O)C[C@]5(C)[C@@H](C6=CC(=O)OC6)CC[C@]5(O)[C@@H]4CC[C@]3(O)C2)[C@H](O)[C@H](O)[C@H]1O
2. O=c1[nH]c2ccccc2n1C1CCN(CCCC(c2ccc(F)cc2)c2ccc(F)cc2)CC1
3. Nc1ccncc1
4. NCC(O)c1ccc(O)cc1 (stereo unspecified)
5. Cc1cc(SCc2sc(-c3ccc(C(F)(F)F)c(F)c3)nc2C)ccc1OCC(=O)O

Result:
1. 6.71
2. 1.32
3. -2.98
4. -0.493
5. 14.6

====

- Conditions: Ebola virus entry assay, green fluorescence channel
Results with a measured potency or affinity are listed apart.
Measured attribute: efficacy (%)
Numbers only, in %.

Solved entries:
>>> df
                                   compound  measured_attribute  reading_unit  assay_value
0  CC(C)CC(N(C)C)C1(c2ccc(Cl)cc2)CCC1 (stereo not drawn)            efficacy             %        -28.7
1  C[C@@H]1C[C@H]2[C@@H]3CCC4=CC(=O)C=C[C@]4(C)[C@@]3(F)[C@@H](O)C[C@]2(C)[C@@]1(O)C(=O)CO            efficacy             %        -13.7

Q: Item under review: N[C@@H](Cc1ccc(Oc2cc(I)c(O)c(I)c2)c(I)c1)C(=O)O . Reported efficacy?
Result: -32

====

- Run description: Quantitative High-Throughput drug screen in 47 multiple myeloma cell lines against the NCATS MIPE library collection: NCIH929_DSMZ cell viability assay (AID 1918978); note: nearly all actives have a fitted effect of over 35% in size
- Conditions: NCI-H929 myeloma viability, CellTiter-Glo ATP, 48 h; series mostly up to 45.8 µM
- Excerpt: PI: Beverly A. Mock Ph.D. Laboratory of Cancer Biology and Genetics, Center for Cancer Research, National Cancer Institute, National Institute of Health, Bethesda, Maryland […] 5; Detector; 425V; Luminescence; Viewlux PerkinElmer. […] 1. […] Briefly, the corresponding myeloma cell lines were screened in 1,536-well plates with 500 cells, 5-uL per well for inhibition of cell viability (assessed by measuring ATP levels with CellTiterGlo). […]
Records with an inconclusive call do not appear. Activity calls are given as the source filed them. Calls follow the shape of the dose curve; as a rule, active = well fitted cell-killing curve with a large enough effect; inconclusive = small, poorly fitted or top-dose-only effect; inactive = no such curve, though single readings can be large or run the other way.
# output must be one of True for active, False for inactive

These solved cases illustrate the format of a correct answer.
Molecule	Label value
COC[C@H]1OC(=O)c2coc3c2[C@@]1(C)C1=C(C3=O)C2CCC(=O)[C@@]2(C)C[C@H]1OC(C)=O (some centres undefined)	True
CNC(=O)c1ccc(N2C(=S)N(c3ccc(C#N)c(C(F)(F)F)c3)C(=O)C23CCC3)cc1F	True
CCCC(C)(COC(N)=O)COC(=O)NC(C)C (centres undefined)	False

Q: Per the assay record, what outcome was assigned to COc1ccc(C(=O)c2c(C)n(CCN3CCOCC3)c3ccccc23)cc1 ?
Result: False

Q: I'd appreciate the recorded outcome for Cn1c(CCCC(=O)O)nc2cc(N(CCCl)CCCl)ccc21 from this test.
Result: True

Q: // param item: CN(C)CCc1ccc(O)cc1 ; yields the recorded call
Result: False

Q: Which outcome was entered for the molecule O=P1(NCCCl)OCCCN1CCCl (centres undefined) in this test?
Result: False

Q: How did this test come out for C#CCN(C)[C@H](C)Cc1ccccc1 ?
Result: False

Q: Please let me know the test result on file for C[C@@H]1O[C@@H](O[C@H]2C[C@@H](O)[C@]3(CO)[C@H]4[C@H](O)C[C@]5(C)[C@@H](C6=CC(=O)OC6)CC[C@]5(O)[C@@H]4CC[C@]3(O)C2)[C@H](O)[C@H](O)[C@H]1O .
Result: True
